experiment: Plasma pharmacokinetics, Parkinson's disease patients, once daily for 14 days; assay type: in vivo, human; settings: human, oral, 12 mg, Day 14, plasma, PD patients
recorded.metric: Cmax (ng/mL)
Give just the number in ng/mL; leave the unit off.

// lookup Cmax for Cc1ccc(C(=O)NNC(=O)c2c(C)cccc2Cl)cc1C#Cc1cnc2ccccc2c1
301

====

assay: Plasma pharmacokinetics, Parkinson's disease patients, once daily for 14 days; assay type: in vivo, human; details: human, 192 mg, PD patients, read-out: AUC Over Dosing Interval Min, Max
recorded.metric: AUC

Recorded AUC for Cc1ccc(C(=O)NNC(=O)c2c(C)cccc2Cl)cc1C#Cc1cnc2ccccc2c1 , please?
13800 to 82700 ng·h/mL
